Entries and their Amount of moisture reduction in 24 to 96 h values follow.
Assay: Water retention property test 3 (long term)
Type: physicochemical
Settings: 80 wt % aqueous solution, 1.0 g; 40° C. and 25% RH; 24~96 h
Reply with just the number (in mg).

Problem: Fill in the blank: the reported Amount of moisture reduction in 24 to 96 h of CCCCn1cc[n+](C)c1.F[B-](F)(F)F [Comparative example C14] is ____.
Result: 134.4

Problem: Fill in the blank: the reported Amount of moisture reduction in 24 to 96 h of CCCC[N+](CCCC)(CCCC)CCCC.[Br-] [Comparative example C13] is ____.
Result: 145.8

Problem: Fill in the blank: the reported Amount of moisture reduction in 24 to 96 h of OCC(O)CO [Comparative example C15] is ____.
Result: 74.8

Problem: Fill in the blank: the reported Amount of moisture reduction in 24 to 96 h of CS(=O)(=O)O.NC(CO)CO [Working example C118] is ____.
Result: 20.0

Continuing:
Problem: Fill in the blank: the reported Amount of moisture reduction in 24 to 96 h of CC(O)C(=O)O.NC(CO)CO (centres unmarked) [Working example C117] is ____.
Result: 20.1

###

Assay: Water retention property test 2 (hydrates)
Format: physicochemical
Conditions: hydrate (anhydrides: aqueous solution at mono- to trihydrate concentration); unsealed, 24 hours at 40° C. and 25% RH
Entries and their Post-test moisture rate values follow.
Reply with just the number (in %).

Problem: Fill in the blank: the reported Post-test moisture rate of O=C1OC(C(O)CO)C(O)=C1O.OCCN(CCO)CCO (centres unmarked) is ____.
Result: 9.8

Problem: Fill in the blank: the reported Post-test moisture rate of CCCC[N+](CCCC)(CCCC)CCCC.[Br-] [Comparative example C6] is ____.
Result: 10.8

Problem: Fill in the blank: the reported Post-test moisture rate of CCC(N)(CO)CO.Cl is ____.
Result: 17.0

Continuing:
Problem: Fill in the blank: the reported Post-test moisture rate of CC(O)C(=O)O.OCCNCCO is ____.
Result: 14.9

Problem: Fill in the blank: the reported Post-test moisture rate of C[N+](C)(C)CCO.O=C([O-])CO is ____.
Result: 8.9

Problem: Fill in the blank: the reported Post-test moisture rate of CC(O)C(=O)[O-].C[N+](C)(C)CCO is ____.
Result: 8.1

Problem: Fill in the blank: the reported Post-test moisture rate of CC(O)C(=O)[O-].OCC[N+](CCO)(CCO)CCO is ____.
Result: 10.7

Problem: Fill in the blank: the reported Post-test moisture rate of C[N+](C)(CCO)CC(O)C[N+](C)(C)CCO.[Cl-].[Cl-] is ____.
Result: 9.4

Problem: Fill in the blank: the reported Post-test moisture rate of Br.CCC(N)(CO)CO is ____.
Result: 13.9

Problem: Fill in the blank: the reported Post-test moisture rate of CC(=O)OCC[N+](C)(C)C.O=C1O[C@H]([C@@H](O)CO)C([O-])=C1O is ____.
Result: 9.9

Problem: Fill in the blank: the reported Post-test moisture rate of Br.NC(CO)CO is ____.
Result: 15.7

Problem: Fill in the blank: the reported Post-test moisture rate of CC(O)C(=O)O.NC(CO)(CO)CO is ____.
Result: 12.9

Problem: Fill in the blank: the reported Post-test moisture rate of C[N+](C)(C)CCO.O=C([O-])C=CC(=O)O is ____.
Result: 7.2

Problem: Fill in the blank: the reported Post-test moisture rate of NCC(O)C(O)C(O)C(O)CO.O=C1OC(C(O)CO)C(O)=C1O (centres unmarked) is ____.
Result: 9.1
